Tested on: K-562 leukemia
Assay: NCI-60 one-dose screen, 48 h
Details: 10 µM unless noted
This is part of a sample that, as a whole, favours compounds with a hit. Of some 83,000 tested, about 20% had one in any assay. Active and inactive are the calls of the source. The calls were made as follows: active = growth percent below 10; inactive = the rest.
Can you answer with just one of these options? active, inactive

COMPOUND	ASSAYED TARGET	ASSIGNED CATEGORY
O=c1c2c3c(sc2n2c(-c4cn(-c5ccccc5)nc4-c4ccc(Cl)cc4)nnc2n1Cc1ccccc1)CCCC3	K-562 leukemia	inactive

Lookup: What did this assay record as the result for N=C1CCC(=N)c2c1c(O)c1ccccc1c2O ?
Found: inactive

Lookup: What did this assay record as the result for CCc1ccccc1-n1c(-c2ccc(Cl)cc2)cc(-c2ccc(Cl)cc2)c(C#N)c1=O ?
Found: inactive

Lookup: What did this assay record as the result for CCCCCCCCCOc1c(OC)cc(C2CC(=O)Nc3c2c(C)nn3-c2nc3ccccc3[nH]2)cc1OC (stereo not given) ?
Found: active

Lookup: What did this assay record as the result for Cc1nc2c(c(N3CCCc4ccccc43)n1)CCC2 ?
Found: active

Lookup: What did this assay record as the result for O=[N+]([O-])c1ccc(N2c3ccncc3Sc3ccncc32)cc1 ?
Found: inactive

Lookup: What did this assay record as the result for Cc1cc(/C=C\c2ccc3ccccc3[n+]2C)c(O)c2ncccc12 ?
Found: active

Lookup: What did this assay record as the result for Cn1c(I)c(C#C[Si](C)(C)C)c(=O)n(C(=O)c2ccccc2)c1=O ?
Found: active

Lookup: What did this assay record as the result for NS(=O)(=O)c1cnccc1Sc1ccncc1S(N)(=O)=O ?
Found: inactive

Lookup: What did this assay record as the result for COC(=O)c1c2c(c[n+]([O-])c1C)C(=O)C=CC2=O ?
Found: active

Lookup: What did this assay record as the result for Cc1cc[c-]cc1.Fc1c[c-]c(-c2ccccn2)c(F)c1.[Pt+2].c1ccc(P(C[PH+](c2ccccc2)c2ccccc2)c2ccccc2)cc1 ?
Found: active

---

System: SN12C renal
Assay: NCI-60 one-dose screen, 48 h
Conditions: 10 µM unless noted
Compounds without any hit were thinned out: in the full panel of roughly 83,000, 20% have a hit. Activity calls are given as the source filed them. How the source made its calls: active means growth percent below 10; inactive means the rest.
Can you answer with just one of these options? 1 (active), 0 (inactive)

COMPOUND	ASSAYED TARGET	ASSIGNED CATEGORY
N#Cc1c(N)nn(C(=O)c2ccc(NC(=O)c3ccccn3)cc2)c1-c1ccc(Cl)cc1	SN12C renal	0
COc1cc(C2CC(=O)Nc3c2c(C)nn3-c2nc3ccccc3[nH]2)cc2c1OCC(=O)N2 (centres undefined)	SN12C renal	0
COc1ccc(C(=O)COc2ccc(/C=C3\Oc4ccccc4C3=O)cc2)cc1	SN12C renal	0
CCC(CO)Nc1nc2ccc(Cl)cc2c2ccccc12 (centres undefined)	SN12C renal	0
O=C(Nc1ccc(Nc2ccncc2)cc1)c1ccc(C(=O)Nc2ccc(Nc3ccncc3)cc2)cc1	SN12C renal	0

Lookup: What did this assay record as the result for Clc1cccc(Cl)c1C(Nc1nc2ccccc2s1)Nc1nc2ccccc2s1 ?
Found: 0

Lookup: What did this assay record as the result for O=c1c2c3c(sc2n2c(-c4cc(-c5ccccc5)nn4-c4ccccc4)nnc2n1Cc1ccccc1)CCCC3 ?
Found: 0

Lookup: What did this assay record as the result for C#CCOc1nc(C)cc(C)c1C#N ?
Found: 0

Lookup: What did this assay record as the result for O=C(O)CN1C(=O)CCC1=O ?
Found: 0

Lookup: What did this assay record as the result for Cc1cc(O)c(C2=NN(c3ccc(S(N)(=O)=O)cc3)C(c3ccccc3Cl)C2)cc1Cl (centres undefined) ?
Found: 0
